Please go through the items and note down their pIC50.
- experimentalSystem: Sodium- and chloride-dependent GABA transporter 1 (Mus musculus, UniProt P31648)
- experiment: Inhibition of mouse GAT1 expressed in HEK293 cells assessed as [3H]GABA uptake preincubated for 25 mins followed by [3H]GABA/unlabeled GABA addition measured after 4 mins by liquid scintillation counting analysis
Bear in mind: pIC50 is minus log10 of a mol/L concentration; give just that figure.

Identify the reported pIC50 for the following entry. C#CCCC[C@H]1CCNC[C@@H]1C(=O)O (racemic)
2.94

Given O=C(O)[C@H]1CNCC[C@H]1CCCC/C=C/c1ccccc1-c1ccccc1 (racemic) , respond with its pIC50.
4.61

Indicate its recorded pIC50; the molecule in question is CN1CC[C@H](CC/C=C/c2ccccc2Cc2ccccc2)[C@@H](C(=O)O)C1 (racemic)
4.43

For CN1CC[C@H](CCC/C=C/c2ccccc2Cc2ccccc2)[C@@H](C(=O)O)C1 (racemic) , write its pIC50.
4.61

For the molecule C=CCCCC[C@H]1CCNC[C@@H]1C(=O)O (racemic) , report pIC50.
3.13

Return pIC50 for the following molecule: CN1CC[C@H](CC/C=C/c2ccccc2-c2ccccc2)[C@@H](C(=O)O)C1 (racemic)
4.58

Check the records and state pIC50 for O=C(O)[C@H]1CNCC[C@@H]1CCC/C=C/c1ccccc1Cc1ccccc1 (racemic)
3.97

Tell me its pIC50 given CN1CC[C@H](CCC/C=C/c2ccccc2-c2ccccc2)[C@@H](C(=O)O)C1 (racemic) as the entry.
4.46

Please report pIC50 for the following molecule: O=C(O)[C@H]1CNCC[C@@H]1CC/C=C/c1ccccc1-c1ccccc1 (racemic)
4.22

* * *

- Tested on: Sodium- and chloride-dependent betaine transporter (Mus musculus)
- experiment: Inhibition of mouse GAT2 expressed in HEK293 cells assessed as remaining [3H]GABA uptake at 100 uM preincubated for 25 mins followed by [3H]GABA/unlabeled GABA addition measured after 10 mins by liquid scintillation counting analysis
Label scheme, based on Activity: low interval (below 60%), middle interval (60% to below 80%), high interval (80% or more)

Band for O=C(O)[C@H]1CNCC[C@H]1CCCC#Cc1ccccc1-c1ccccc1 (racemic) ?
middle interval

Category of CN1CC[C@H](CCC#Cc2ccccc2Cc2ccccc2)[C@@H](C(=O)O)C1 (racemic) :
low interval

Form: Item = CN1CC[C@H](CCC#Cc2ccccc2-c2ccccc2)[C@@H](C(=O)O)C1 (racemic) ; Class = ?
middle interval

Hello team, could you let me know which band the following compound falls into: O=C(O)[C@H]1CNCC[C@H]1CC/C=C/c1ccccc1Cc1ccccc1 (racemic)
middle interval

Category lookup for the compound O=C(O)[C@H]1CNCC[C@H]1CCC/C=C/c1ccccc1-c1ccccc1 (racemic)
middle interval

Band for the recorded Activity of O=C(O)[C@H]1CNCC[C@@H]1CCCC/C=C/c1ccccc1-c1ccccc1 (racemic) ?
middle interval

Which bin should I file O=C(O)[C@H]1CNCC[C@H]1CCC#Cc1ccccc1-c1ccccc1 (racemic) under?
low interval

Class for O=C(O)[C@H]1CNCC[C@@H]1CC/C=C/c1ccccc1Cc1ccccc1 (racemic) ?
high interval

Record CN1CC[C@H](CCCC#Cc2ccccc2-c2ccccc2)[C@@H](C(=O)O)C1 (racemic) — which class?
low interval

Kindly state the category for this compound: O=C(O)[C@H]1CNCC[C@@H]1CCC/C=C/c1ccccc1-c1ccccc1 (racemic)
high interval

Form: Item = O=C(O)[C@H]1CNCC[C@@H]1CC/C=C/c1ccccc1-c1ccccc1 (racemic) ; Class = ?
high interval

# bin label for O=C(O)[C@H]1CNCC[C@H]1CCC#Cc1ccccc1Cc1ccccc1 (racemic)
middle interval

In plain terms, what class is CN1CC[C@H](CC/C=C/c2ccccc2-c2ccccc2)[C@@H](C(=O)O)C1 (racemic) ?
high interval

Which class does CN1CC[C@H](CCC/C=C/c2ccccc2-c2ccccc2)[C@@H](C(=O)O)C1 (racemic) fall in?
high interval

Hi there! Could you help me figure out the category for O=C(O)[C@H]1CNCC[C@H]1CCCC#Cc1ccccc1Cc1ccccc1 (racemic) please?
low interval
